Tested system: T1, TIGIT (SPR analyte) (human, UniProt Q495A1 22-141, limits assumed)
T1 construct: the text says only 'TIGIT was used as the analyte'; The construct is not described; also called human TIGIT
T1 sequence (looked up): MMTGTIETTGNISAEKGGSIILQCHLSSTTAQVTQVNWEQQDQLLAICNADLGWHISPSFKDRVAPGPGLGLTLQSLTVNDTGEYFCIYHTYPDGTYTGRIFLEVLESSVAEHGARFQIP
Test description: SPR (Biacore 8K), antibody captured through Fc, TIGIT as analyte
Overview of recorded pKd for various binders
Note on pKd: it is the negative log10 of concentration, concentration in mol/L.

See these solved cases before continuing.
| Binder | pKd |
| --- | --- |
| VH4 + VL2 (antibody, human IgG1, kappa, V domains shown, Humanized full-length IgG; also called HC3 + LC1) VH: EVQLVQSGAEVKKPGESLKISCKGSGYTFSRYWIEWVRQMPGKGLEWMGEIFPGSGGTNYNEKFKGQVTISADKSISTAYLQWSSLKASDTAMYYCARHLGALDYWGQGTLVTVSS VL: DIQMTQSPSSLSASVGDRVTITCSASSSVSYIHWYQQKPGKAPKLLIYRTSNLASGVPSRFSGSGSGTDFTLTISSLQPEDFATYYCQQYHSNPWTFGGGTKLEIKR | 9.91 |
| Chimeric VH+VL (Parental mouse VH+VL combined with human Fc) (antibody, human IgG1, kappa, V domains shown, also called chimeric antibody) VH: QVQLQQSGAELMKPGASVKISCKATGYTFSRYWIEWVKQRPGHGLEWIGEIFPGSGGTNYNEKFKGKATFTADTSSNTAYMQLTSLTSEDSAVYYCARHLGALDYWGQGTSVTVSS VL: QIVLTQSPAIMSASPGEKVTISCSASSSVSYIHWYQQKAGSSPKPWIYRTSNLASGVPARLSGSGSGTSYFLTISSMEAEDAATYYCQQYHSNPWTFGGGTKLEIKR | 9.75 |
| VH3 + VL3 (antibody, human IgG1, kappa, V domains shown, Humanized full-length IgG; also called HC2 + LC2) VH: QVQLVQSGAEVKKPGASVKVSCKASGYTFSRYWIEWVRQAPGQGLEWMGEIFPGSGGTNYNEKFKGRVTMTRDTSTSTVYMELSSLRSEDTAVYYCARHLGALDYWGQGTLVTVSS VL: EIVLTQSPGTLSLSPGERATLSCSASSSVSYIHWYQQKPGQAPRLLIYRTSNLASGIPDRFSGSGSGTDFTLTISRLEPEDFAVYYCQQYHSNPWTFGGGTKLEIKR | 9.95 |

Lookup: What does the record list as pKd for VH3 + VL4 (antibody, human IgG1, kappa, V domains shown, Humanized full-length IgG; also called HC2 + LC3) VH: QVQLVQSGAEVKKPGASVKVSCKASGYTFSRYWIEWVRQAPGQGLEWMGEIFPGSGGTNYNEKFKGRVTMTRDTSTSTVYMELSSLRSEDTAVYYCARHLGALDYWGQGTLVTVSS VL: DIVMTQSPDSLAVSLGERATINCSASSSVSYIHWYQQKPGQPPKLLIYRTSNLASGVPDRFSGSGSGTDFTLTISSLQAEDVAVYYCQQYHSNPWTFGGGTKLEIKR ?
Found: 9.96
